Ref: paper PMC6268546

Assay: PAMPA test (skin permeability model)
Details: PAMPA, pH 7
Papp at 7 h, 100 μM by entry:
Value type: Papp at 7 h, 100 μM (×10⁻⁶ cm/s)

compound="CC1(C)O[C@@H]2C[C@H]3[C@@H]4C[C@H](F)C5=CC(=O)C=C[C@]5(C)[C@@]4(F)[C@@H](O)C[C@]3(C)[C@]2(C(=O)CO)O1 [FA, fluocinolone acetonide, reference compound]" value_type="Papp at 7 h, 100 μM" unit_string="×10⁻⁶ cm/s" readout_value=5.5
compound="CC(=O)OCC(=O)[C@@]1(O)CC[C@H]2[C@@H]3CCC4=CC(=O)CC[C@]4(C)[C@H]3[C@@H](O)C[C@@]21C [H-21-Ac, hydrocortisone acetate, reference compound]" value_type="Papp at 7 h, 100 μM" unit_string="×10⁻⁶ cm/s" readout_value=8.51
compound="C[C@@H]1C[C@H]2[C@@H]3CCC4=CC(=O)C=C[C@]4(C)[C@@]3(Cl)[C@@H](O)C[C@]2(C)[C@@]1(OC(=O)c1ccco1)C(=O)CCl [MF, mometasone furoate, reference compound]" value_type="Papp at 7 h, 100 μM" unit_string="×10⁻⁶ cm/s" readout_value=79.4
compound="CC1(C)O[C@@H]2C[C@H]3[C@@H]4CCC5=CC(=O)C=C[C@]5(C)[C@@]4(F)[C@@H](O)C[C@]3(C)[C@]2(C(=O)CO)O1 [TA, triamcinolone acetonide, reference compound]" value_type="Papp at 7 h, 100 μM" unit_string="×10⁻⁶ cm/s" readout_value=9.77

====

Test: PAMPA test (skin permeability model)
Conditions: 70% silicone oil-30% IPM membrane, 7 h incubation, 100 μM in 5% DMSO phosphate buffer pH 7, triplicate mean
Threshold check on retention factor R (membrane retention): strictly below 40% is Y; on or above 40% is N.

molecule="C[C@@H]1C[C@H]2[C@@H]3CCC4=CC(=O)C=C[C@]4(C)[C@@]3(Cl)[C@@H](O)C[C@]2(C)[C@@]1(OC(=O)c1ccco1)C(=O)CCl [MF, mometasone furoate, reference compound]" category_label=N
molecule="CC1(C)O[C@@H]2C[C@H]3[C@@H]4C[C@H](F)C5=CC(=O)C=C[C@]5(C)[C@@]4(F)[C@@H](O)C[C@]3(C)[C@]2(C(=O)CO)O1 [FA, fluocinolone acetonide, reference compound]" category_label=Y
molecule="CCOC(C)C(=O)OCC(=O)[C@@]12OC(C)(C)O[C@@H]1C[C@H]1[C@@H]3C[C@H](F)C4=CC(=O)C=C[C@]4(C)[C@@]3(F)[C@@H](O)C[C@@]12C (stereo partly drawn) [FA-21-EP]" category_label=N
molecule="CCC(OC)C(=O)OCC(=O)C12OC(C)(C)OC1CC1C3CC(F)C4=CC(=O)C=CC4(C)C3(F)C(O)CC12C (stereo not drawn) [FA-21-MB]" category_label=N
molecule="CCOC(CC)C(=O)OCC(=O)C12OC(C)(C)OC1CC1C3CC(F)C4=CC(=O)C=CC4(C)C3(F)C(O)CC12C (stereo not drawn) [FA-21-EB]" category_label=N
molecule="CC(Oc1ccccc1)C(=O)OCC(=O)C12OC(C)(C)OC1CC1C3CC(F)C4=CC(=O)C=CC4(C)C3(F)C(O)CC12C (stereo not drawn) [FA-21-PhP]" category_label=N
molecule="CCOC(CC)C(=O)OCC(=O)C12OC(C)(C)OC1CC1C3CCC4=CC(=O)C=CC4(C)C3(F)C(O)CC12C (stereo not drawn) [TA-21-EB]" category_label=N
molecule="COC(C)C(=O)OCC(=O)C12OC(C)(C)OC1CC1C3CCC4=CC(=O)C=CC4(C)C3(F)C(O)CC12C (stereo not drawn) [TA-21-MP]" category_label=Y
molecule="CC(Oc1ccccc1)C(=O)OCC(=O)C12OC(C)(C)OC1CC1C3CCC4=CC(=O)C=CC4(C)C3(F)C(O)CC12C (stereo not drawn) [TA-21-PhP]" category_label=N
molecule="CCOC(CC)C(=O)OCC(=O)C1(O)C(C)CC2C3CCC4=CC(=O)C=CC4(C)C3(F)C(O)CC21C (stereo not drawn) [DEX-21-EB, dexamethasone 21-(2′-ethoxybutyrate)]" category_label=Y
molecule="C[C@@H]1C[C@H]2[C@@H]3CCC4=CC(=O)C=C[C@]4(C)[C@@]3(F)[C@@H](O)C[C@]2(C)[C@@]1(O)C(=O)CO [DEX, dexamethasone, reference compound]" category_label=Y
molecule="CCOC(C)C(=O)OCC(=O)C1(O)C(C)CC2C3CCC4=CC(=O)C=CC4(C)C3(F)C(O)CC21C (stereo not drawn) [DEX-21-EP, dexamethasone 21-(2′-ethoxypropionate)]" category_label=Y
molecule="CCC(OC)C(=O)OCC(=O)C1(O)C(C)CC2C3CCC4=CC(=O)C=CC4(C)C3(F)C(O)CC21C (stereo not drawn) [DEX-21-MB, dexamethasone 21-(2′-methoxybutyrate)]" category_label=Y
molecule="COC(C)C(=O)OCC(=O)C1(O)C(C)CC2C3CCC4=CC(=O)C=CC4(C)C3(F)C(O)CC21C (stereo not drawn) [DEX-21-MP, dexamethasone 21-(2′-methoxypropionate)]" category_label=Y
molecule="CCOC(C)C(=O)OCC(=O)C12OC(C)(C)OC1CC1C3CCC4=CC(=O)C=CC4(C)C3(F)C(O)CC12C (stereo not drawn) [TA-21-EP]" category_label=Y
molecule="CC1(C)O[C@@H]2C[C@H]3[C@@H]4CCC5=CC(=O)C=C[C@]5(C)[C@@]4(F)[C@@H](O)C[C@]3(C)[C@]2(C(=O)CO)O1 [TA, triamcinolone acetonide, reference compound]" category_label=Y
molecule="C[C@]12CCC(=O)C=C1CC[C@@H]1[C@@H]2[C@@H](O)C[C@@]2(C)[C@H]1CC[C@]2(O)C(=O)CO [H, hydrocortisone, reference compound]" category_label=Y
molecule="CC(Oc1ccccc1)C(=O)OCC(=O)C1(O)C(C)CC2C3CCC4=CC(=O)C=CC4(C)C3(F)C(O)CC21C (stereo not drawn) [DEX-21-PhP, dexamethasone 21-(2′-phenoxypropionate)]" category_label=N
molecule="CC(=O)OCC(=O)[C@@]1(O)CC[C@H]2[C@@H]3CCC4=CC(=O)CC[C@]4(C)[C@H]3[C@@H](O)C[C@@]21C [H-21-Ac, hydrocortisone acetate, reference compound]" category_label=Y
molecule="COC(C)C(=O)OCC(=O)[C@@]12OC(C)(C)O[C@@H]1C[C@H]1[C@@H]3C[C@H](F)C4=CC(=O)C=C[C@]4(C)[C@@]3(F)[C@@H](O)C[C@@]12C (stereo partly drawn) [FA-21-MP]" category_label=Y
